# Test system: A498 renal
# Protocol Summary: NCI tumour cell line growth inhibition, 48 h
Would you kindly list GI50 for each of these molecules?

Req: State its GI50 for this molecule: CCc1c2c(nc3ccc(OC(=O)NCc4ccc(B5OC(C)(C)C(C)(C)O5)cc4)cc13)-c1cc3c(c(=O)n1C2)COC(=O)[C@]3(O)CC
Resp: 14.1 nM

Req: State its GI50 for this molecule: Nc1cc(N)c2nc(-c3ccccc3)c(Sc3ccc(Cl)c(Cl)c3)nc2c1
Resp: 21900 nM

Req: State its GI50 for this molecule: COc1ccc2c(c1)OCC1c3cc(O)ccc3OC21 (stereo not given)
Resp: 40200 nM

Req: State its GI50 for this molecule: O=C(Nc1ccc(Cl)cc1)Nc1ccc(Oc2nncc3ccccc23)cc1
Resp: 1500 nM

Req: State its GI50 for this molecule: NCCCCCCn1c2c(c3ccccc3c1=O)C(=O)c1ccccc1-2
Resp: 675 nM

====

# Test system: HCT-15 colon
# Protocol Summary: NCI tumour cell line growth inhibition, 48 h
Readout Kind: TGI

Req: State its TGI for this molecule: COc1ccc(C(=O)n2nc(/C=C/c3ccc(O)c(OC)c3)cc2/C=C/c2ccc(O)c(OC)c2)cc1
Resp: 5.96 µM

Req: State its TGI for this molecule: Cc1cn(C2CC(n3cncn3)C(C(C)O)O2)c(=O)[nH]c1=O (configuration not stated)
Resp: > 100 µM

Req: State its TGI for this molecule: O=C(Nc1ccccc1Cl)c1cc(S(=O)(=O)Nc2n[nH]c(=O)n2-c2ccccc2)c(S)cc1Cl
Resp: > 100 µM

Req: State its TGI for this molecule: O=C(Nc1ccccc1)c1cc(S(=O)(=O)Nc2nc3ncccc3[nH]2)c(SSc2cc(Cl)c(C(=O)Nc3ccccc3)cc2S(=O)(=O)Nc2nc3ncccc3[nH]2)cc1Cl
Resp: > 100 µM

Req: State its TGI for this molecule: CCc1c2c(nc3ccc(OC(=O)NCc4ccc(B5OC(C)(C)C(C)(C)O5)cc4)cc13)-c1cc3c(c(=O)n1C2)COC(=O)[C@]3(O)CC
Resp: > 100 µM

Req: State its TGI for this molecule: Cn1c2c(c3ccccc31)C1C(=O)N(c3ccccc3)C(=O)C1CC2 (configuration not stated)
Resp: > 303 µM

Req: State its TGI for this molecule: CNc1cc(OCc2ccccc2)c(OC)cc1C(=O)N1CCC[C@H]1CO
Resp: > 100 µM

Req: State its TGI for this molecule: CN1C(=O)N(C)C2C1NN=c1s/c(=C\c3ccccc3F)c(=O)n12 (configuration not stated)
Resp: > 100 µM

Req: State its TGI for this molecule: CN(C)CCc1ccc(Cl)cc1Cl
Resp: > 100 µM

Req: State its TGI for this molecule: O=c1ssc2ncccc12
Resp: 27.4 µM

Req: State its TGI for this molecule: CC1CCCP(=O)(c2ccccc2)CC1 (configuration not stated)
Resp: > 100 µM

Req: State its TGI for this molecule: COc1cc2c(/C=C3/C(=O)Nc4ccc(O)cc43)c(Cl)[nH]c2cc1C
Resp: 1.17 µM

Req: State its TGI for this molecule: CC1=c2c(oc3cc(O)c(Nc4c(C)cc(O)cc4O)c(C)c23)=CC(=O)C1=Nc1c(C)cc(O)cc1O
Resp: > 100 µM

Req: State its TGI for this molecule: CC(NC(=O)C(Cc1ccc(OC(=O)c2ccccc2)cc1)NC(=O)OC(C)(C)C)C(=O)NCC(=O)NC(Cc1ccccc1)NC(=O)OCc1ccccc1 (configuration not stated)
Resp: > 100 µM

Req: State its TGI for this molecule: CC#CC(OCC)(OCC)OCC
Resp: > 100 µM

Req: State its TGI for this molecule: CCOC(=O)c1nc2cc(C(F)(F)F)ccc2nc1Nc1ccc(OC)c(OC)c1
Resp: > 100 µM

Req: State its TGI for this molecule: NC1CCC[C@H]1O (some centres not stated)
Resp: > 100 µM

Req: State its TGI for this molecule: CCCOP1(=O)C=CC(Cl)=C(C)C1 (configuration not stated)
Resp: 39.7 µM

Req: State its TGI for this molecule: CC[N+](CC)(CC)Cc1cc2ccccc2n1C(=O)OC
Resp: > 100 µM

Req: State its TGI for this molecule: CCCCCCCCCCCC1=NCCN1
Resp: 32.7 µM

Req: State its TGI for this molecule: CC(C)(C)c1cc(Cc2ccc([N+](C)(C)C)cc2)c(O)c(C(C)(C)C)c1
Resp: > 100 µM

Req: State its TGI for this molecule: Cc1cccc(-c2nnc3s/c(=C\c4ccc5c(c4)OCO5)c(=O)n23)c1
Resp: > 100 µM
